From: BindingDB's records for doi:10.1016/s0960-894x(99)00425-4

target: Beta-lactamase CcrA (Bacteroides fragilis); test: Inhibitory activity against CCRA (Bacteroides fragilis) metallo-beta-lactamase
endpoint_label: IC50 (µM)
// units = µM; emit number, no label

Solved entries (count: 3):
C[C@@H](NC(=O)c1ccccc1)C(=O)S[C@H](Cc1ccc(-c2ccccc2)cc1)C(=O)O ... 1000
C[C@@H](NC(=O)c1ccccc1)C(=O)S[C@H](Cc1ccc2oc3ccccc3c2c1)C(=O)O ... 680
O=C(O)[C@H](S)Cc1ccc2oc3ccccc3c2c1 ... 9.9

Let us move to another entry and its IC50.
So for CC(=O)N[C@H](C)C(=O)S[C@H](Cc1ccc(-c2ccccc2)cc1)C(=O)O , the logged IC50 turned out to be 1000

====

molecular target: Beta-lactamase CcrA (Bacteroides fragilis); experiment: Inhibitory activity against CCRA (Bacteroides fragilis) metallo-beta-lactamase
endpoint_label: IC50

CC(C)C(=O)N[C@H](C)C(=O)S[C@H](Cc1ccc(-c2ccccc2)cc1)C(=O)O ... > 1500 µM
C[C@@H](NC(=O)c1ccccc1)C(=O)SCC(=O)O ... > 1000 µM
C=CCOC(=O)N[C@H](C)C(=O)S[C@H](Cc1ccc2oc3ccccc3c2c1)C(=O)O ... > 1500 µM
O=C(S[C@H](Cc1ccccc1)C(=O)O)c1ccccc1 ... > 1000 µM
CCC(=O)N[C@H](C)C(=O)S[C@H](Cc1ccc(-c2ccccc2)cc1)C(=O)O ... > 1500 µM

So for CC(=O)N[C@H](C)C(=O)S[C@H](Cc1ccccc1)C(=O)O , the logged IC50 turned out to be > 1000 µM
